As shown below, each of these binders has a reported Anti-CD28 Fab signal (phage binding ELISA) value.
Target: T1, Anti-CD28 Fab (SEQ ID NOs: 696, 697)
T1 construct: In the phage ELISA the Fab was biotinylated and captured on neutravidin coated plates
T1 sequence (VH, as listed by the source, chain 1 of 2): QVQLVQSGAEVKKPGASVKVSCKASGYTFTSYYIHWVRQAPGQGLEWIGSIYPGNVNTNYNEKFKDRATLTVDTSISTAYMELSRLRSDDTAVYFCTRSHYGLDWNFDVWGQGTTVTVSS
T1 sequence (VL, as listed by the source, chain 2 of 2): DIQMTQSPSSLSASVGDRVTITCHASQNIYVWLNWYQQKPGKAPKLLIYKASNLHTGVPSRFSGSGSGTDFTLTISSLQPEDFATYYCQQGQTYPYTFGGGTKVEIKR
Assay: phage binding ELISA; biotinylated anti-CD28 Fab on neutravidin plate, bound phage detected with anti-M13-HRP;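 note: clonal phage tested as crude supernatants, given a short incubation in the Fab-captured wells before bound phage were read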

Sample records with Anti-CD28 Fab signal (phage binding ELISA):
binder	reportedResult
TCAAGASYPWPACL (Tested as clonal phage supernatant; not shown: fused to the pIII filament of the bacteriophage) [Phage-1445 (peptide-92 library clone, SEQ ID NO: 1741)]	1.89
MCSAGAMYPWPLCL (Tested as clonal phage supernatant; not shown: fused to the pIII filament of the bacteriophage) [Phage-1435 (peptide-92 library clone, SEQ ID NO: 1731)]	1.93
TCAAGAYWTWPACF (Tested as clonal phage supernatant; not shown: fused to the pIII filament of the bacteriophage) [Phage-1437 (peptide-92 library clone, SEQ ID NO: 1733)]	1.93
TCSAGAHYPWPDCI (Tested as clonal phage supernatant; not shown: fused to the pIII filament of the bacteriophage) [Phage-1432 (peptide-92 library clone, SEQ ID NO: 1728)]	1.95
TCSAGATWAWPSCF (Tested as clonal phage supernatant; not shown: fused to the pIII filament of the bacteriophage) [Phage-1440 (peptide-92 library clone, SEQ ID NO: 1736)]	1.92

input: Consider the binder shown here: TCSAGAMWTWPYCF (Tested as clonal phage supernatant; not shown: fused to the pIII filament of the bacteriophage) [Phage-1436 (peptide-92 library clone, SEQ ID NO: 1732)] What is its recorded Anti-CD28 Fab signal (phage binding ELISA)?
output: 1.93

input: Looking for the measured Anti-CD28 Fab signal (phage binding ELISA) of SCSAGASLQLSICL (Tested as clonal phage supernatant; not shown: fused to the pIII filament of the bacteriophage) [Phage-1439 (peptide-92 library clone, SEQ ID NO: 1735)] , can you help?
output: 1.92
